target: SYK (human) (UniProt P43405); test: radiometric filter-binding kinase assay; conditions: compound 0.01 µM
Experimental readout: residual activity (%)
// note: answer is a bare numeric in %

Some solved entries appear below for comparison.
compound=O=C(Nc1nc2cc(C(F)(F)F)cc(NC3CC3)n2n1)c1cccnc1 experimental_readout="residual activity" experimental_result=107
compound=C/C(=C1/C(=O)Nc2ccc(NC(N)=O)cc21)c1ccc[nH]1 experimental_readout="residual activity" experimental_result=104
compound=CNc1nc(-c2ccc3c(N)n[nH]c3c2)cc(N2C[C@@H](C(=O)NC3CCCCC3)CC[C@H]2C)n1 experimental_readout="residual activity" experimental_result=109

Problem: Item `COc1ccc(N(C(=O)Nc2c(C)cccc2C)c2cc(Nc3ccc(N4CCN(C)CC4)cc3)ncn2)c(OC)c1` with SYK (human) (UniProt P43405) - residual activity?
Solution: 112

Problem: Item CNC(=O)C1[C@H]2O[C@@](C)([C@@H]1N)n1c3ccccc3c3c4c(c5c6ccccc6n2c5c31)C(=O)NC4 (stereo not given in full) with SYK (human) (UniProt P43405) - residual activity?
Solution: 21

====

target: BTK (human); assay: radiometric filter-binding kinase assay; conditions: compound 0.01 µM
We label by threshold. Values of residual activity strictly beneath 90% are T. Values of 90% and up are F.

Problem: # TODO verify residual activity < 90% strictly for this molecule: COc1cc(O)c2c(c1)[C@H]1OC1C[C@H](O)[C@H](O)C(=O)/C=C\C[C@H](C)OC2=O (stereo partly specified)
Solution: F

Problem: # TODO verify residual activity < 90% strictly for this molecule: `CNc1nc(-c2ccc3c(N)n[nH]c3c2)cc(N2C[C@@H](C(=O)NC3CCCCC3)CC[C@H]2C)n1`
Solution: F

Problem: # TODO verify residual activity < 90% strictly for this molecule: `C/C(=C1/C(=O)Nc2ccc(NC(N)=O)cc21)c1ccc[nH]1`
Solution: T

Problem: # TODO verify residual activity < 90% strictly for this molecule: CNC(=O)C1[C@H]2O[C@@](C)([C@@H]1N)n1c3ccccc3c3c4c(c5c6ccccc6n2c5c31)C(=O)NC4 (stereo partly specified)
Solution: T

Problem: # TODO verify residual activity < 90% strictly for this molecule: `O=C(Nc1nc2cc(C(F)(F)F)cc(NC3CC3)n2n1)c1cccnc1`
Solution: F

====

molecular target: MAPK1 (human) (UniProt P28482); test: radiometric filter-binding kinase assay; details: compound 10.0 µM
Sequence (P28482 whole entry, looked up): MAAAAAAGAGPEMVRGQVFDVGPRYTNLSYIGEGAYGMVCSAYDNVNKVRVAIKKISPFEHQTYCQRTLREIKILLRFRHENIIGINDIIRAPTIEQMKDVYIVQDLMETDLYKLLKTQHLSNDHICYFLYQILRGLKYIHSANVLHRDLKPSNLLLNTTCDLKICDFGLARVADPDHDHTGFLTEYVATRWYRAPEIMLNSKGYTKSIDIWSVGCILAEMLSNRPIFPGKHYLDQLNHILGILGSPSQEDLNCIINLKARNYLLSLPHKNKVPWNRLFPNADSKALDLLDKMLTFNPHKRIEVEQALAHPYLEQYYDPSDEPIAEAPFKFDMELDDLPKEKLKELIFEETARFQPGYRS
Measured residual activity, listed per entry for reference.
// note: answer is a bare numeric in %

Some solved entries appear below for comparison.
compound=NC(=O)c1c(NC(=O)C2CC2)sc2c1CCCC2 experimental_readout="residual activity" experimental_result=89
compound=O=C1NC(=S)N[C@@H]1Cc1c[nH]c2ccccc12 experimental_readout="residual activity" experimental_result=88
compound=NC(=O)c1cc(-c2ccnc(NC3CCCCC3)c2)nc(N2CCNCC2)c1 experimental_readout="residual activity" experimental_result=6
compound=Oc1ccc2ccccc2c1SSc1c(O)ccc2ccccc12 experimental_readout="residual activity" experimental_result=101
compound=CCNc1nc(Nc2cc(F)c(C(=O)N3CCOCC3)cc2OC)ncc1C(F)(F)F experimental_readout="residual activity" experimental_result=71
compound=Cc1cc(SCc2sc(-c3ccc(C(F)(F)F)cc3)nc2C)ccc1OCC(=O)O experimental_readout="residual activity" experimental_result=102
compound=C=CC(=O)N1CCC[C@@H](n2nc(-c3ccc(Oc4ccccc4)cc3)c3c(N)ncnc32)C1 experimental_readout="residual activity" experimental_result=90
compound=O=c1c(O)c(-c2ccc(O)c(O)c2)oc2cc(O)c(O)c(O)c12 experimental_readout="residual activity" experimental_result=105

Problem: Please report the recorded residual activity for `O=C(Nc1cccnc1)c1cc(-c2ccnc(F)c2)ccc1OCc1ccccc1` .
Solution: 115

Problem: Please report the recorded residual activity for `NC(=O)c1cc2c(-c3cccc(-c4ccccc4)c3)cnc(N)c2s1` .
Solution: 6

Problem: Please report the recorded residual activity for `Cc1cccc(Nc2nn(C)c3ncnc(N)c23)c1` .
Solution: 111

====

Measured residual activity, listed per entry for reference.
system: AKT2 (human), P31751 [S474D]; test: radiometric filter-binding kinase assay; details: compound 1.0 µM
Sequence (P31751 whole entry S474D, looked up): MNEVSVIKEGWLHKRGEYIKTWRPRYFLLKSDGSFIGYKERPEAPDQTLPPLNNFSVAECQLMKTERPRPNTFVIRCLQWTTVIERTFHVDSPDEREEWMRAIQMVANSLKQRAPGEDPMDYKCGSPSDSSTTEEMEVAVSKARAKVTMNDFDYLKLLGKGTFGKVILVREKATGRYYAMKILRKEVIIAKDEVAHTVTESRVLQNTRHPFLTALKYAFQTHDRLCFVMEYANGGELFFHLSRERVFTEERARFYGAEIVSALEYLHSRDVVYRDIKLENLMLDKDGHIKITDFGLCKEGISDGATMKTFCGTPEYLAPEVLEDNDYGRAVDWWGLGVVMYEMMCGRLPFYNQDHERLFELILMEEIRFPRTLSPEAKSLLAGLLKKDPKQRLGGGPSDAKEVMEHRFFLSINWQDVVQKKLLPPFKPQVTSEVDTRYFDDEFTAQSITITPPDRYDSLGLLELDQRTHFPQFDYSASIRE
Express the reported value numerically, then name its unit.

Some solved entries appear below for comparison.
compound=COc1cc(C(=O)N2CCOCC2)c(F)cc1Nc1ncc(C(F)(F)F)c(NC2CC2)n1 experimental_readout="residual activity" experimental_result=99%
compound="C=C1C(=O)OC2C1CC/C(C)=C/CCC1(C)OC21 (stereo not given)" experimental_readout="residual activity" experimental_result=101%
compound=O=C(O)c1ccc(-c2c[nH]c3ncc(-c4ccccc4)cc23)cc1C1CCCC1 experimental_readout="residual activity" experimental_result=98%
compound=CN1C(=O)[C@@H](Cc2c[nH]c3ccccc23)NC1=S experimental_readout="residual activity" experimental_result=79%
compound=C=CC(=O)N1CCC[C@@H](n2nc(-c3ccc(Oc4ccccc4)cc3)c3c(N)ncnc32)C1 experimental_readout="residual activity" experimental_result=93%

Problem: Please report the recorded residual activity for `COc1ccc(N(C(=O)Nc2c(C)cccc2C)c2cc(Nc3ccc(N4CCN(C)CC4)cc3)ncn2)c(OC)c1` .
Solution: 75%

Problem: Please report the recorded residual activity for `O=C1NC(=S)N[C@@H]1Cc1c[nH]c2ccccc12` .
Solution: 83%

Problem: Please report the recorded residual activity for `CCNc1nc(Nc2cc(F)c(C(=O)N3CCOCC3)cc2OC)ncc1C(F)(F)F` .
Solution: 92%

Problem: Please report the recorded residual activity for `Cc1cc(NC(=O)c2cccc(NC(=O)/C=C/CN(C)C)c2)ccc1Nc1nccc(-c2cccnc2)n1` .
Solution: 91%

Problem: Please report the recorded residual activity for `CCc1cncnc1N1CCN(Cc2nc3cc(C(F)(F)F)ccc3[nH]2)CC1` .
Solution: 73%

====

target: EPHA2 (human) (UniProt P29317); assay: radiometric filter-binding kinase assay; conditions: compound 1.0 µM
Sequence (P29317 whole entry, looked up): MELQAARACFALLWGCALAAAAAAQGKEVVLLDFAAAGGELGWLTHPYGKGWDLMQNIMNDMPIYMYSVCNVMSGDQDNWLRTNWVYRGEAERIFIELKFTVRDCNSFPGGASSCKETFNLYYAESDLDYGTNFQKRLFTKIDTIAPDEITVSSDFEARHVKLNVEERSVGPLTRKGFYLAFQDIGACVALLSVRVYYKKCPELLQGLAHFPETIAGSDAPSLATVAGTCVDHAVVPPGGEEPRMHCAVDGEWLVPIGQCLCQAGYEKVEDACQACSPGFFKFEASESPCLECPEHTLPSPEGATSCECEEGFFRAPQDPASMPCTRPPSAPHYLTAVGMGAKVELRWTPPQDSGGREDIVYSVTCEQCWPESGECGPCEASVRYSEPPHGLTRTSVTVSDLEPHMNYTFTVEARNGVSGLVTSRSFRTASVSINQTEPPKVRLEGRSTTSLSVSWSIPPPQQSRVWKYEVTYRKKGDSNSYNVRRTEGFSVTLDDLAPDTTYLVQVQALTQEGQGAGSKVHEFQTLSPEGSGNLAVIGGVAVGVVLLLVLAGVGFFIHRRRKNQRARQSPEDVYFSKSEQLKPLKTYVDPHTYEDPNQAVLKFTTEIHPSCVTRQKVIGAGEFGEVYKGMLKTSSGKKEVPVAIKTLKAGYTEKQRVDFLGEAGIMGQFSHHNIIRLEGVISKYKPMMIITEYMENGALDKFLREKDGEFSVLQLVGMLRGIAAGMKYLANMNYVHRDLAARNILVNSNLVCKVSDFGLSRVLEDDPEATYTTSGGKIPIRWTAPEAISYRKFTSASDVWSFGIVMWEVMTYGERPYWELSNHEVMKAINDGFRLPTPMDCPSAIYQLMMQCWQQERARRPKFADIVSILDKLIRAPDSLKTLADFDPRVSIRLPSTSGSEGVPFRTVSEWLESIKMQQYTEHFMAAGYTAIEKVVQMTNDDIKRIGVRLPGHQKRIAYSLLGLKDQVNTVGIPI
Experimental readout: residual activity (%)
// note: answer is a bare numeric in %

molecule=NC(=O)c1cc2c(-c3cccc(-c4ccccc4)c3)cnc(N)c2s1 experimental_readout="residual activity" experimental_result=78
molecule=CCc1cncnc1N1CCN(Cc2nc3cc(C(F)(F)F)ccc3[nH]2)CC1 experimental_readout="residual activity" experimental_result=86
molecule=c1ccc2c(-c3cnn4cc(-c5ccc(N6CCNCC6)cc5)cnc34)ccnc2c1 experimental_readout="residual activity" experimental_result=81

Problem: Please report the recorded residual activity for `N#Cc1c(C2CCNCC2)cc(-c2c(O)cccc2OCC2CC2)nc1N` .
Solution: 99

====

target: HIPK1 (human); test: radiometric filter-binding kinase assay; details: compound 0.1 µM
We label by threshold. Values of residual activity strictly beneath 90% are satisfied. Values of 90% and up are not satisfied.

Below, 5 compounds whose answers are already recorded.
compound=NC(=O)c1cc2c(-c3cccc(-c4ccccc4)c3)cnc(N)c2s1 label_value=satisfied
compound=c1ccc2c(-c3cnn4cc(-c5ccc(N6CCNCC6)cc5)cnc34)ccnc2c1 label_value="not satisfied"
compound=O=C(Nc1nc2cc(C(F)(F)F)cc(NC3CC3)n2n1)c1cccnc1 label_value="not satisfied"
compound=COc1ccc(-n2ncc3cnc(Nc4cc(OC)c(OC)c(OCCCN5CCN(C)CC5)c4)nc32)cc1 label_value=satisfied
compound=O=C(O)c1ccc(-c2c[nH]c3ncc(-c4ccccc4)cc23)cc1C1CCCC1 label_value="not satisfied"

Problem: # TODO verify residual activity < 90% strictly for this compound: `Cc1ccc(-c2ccc3c(ccc4sc5c(c43)NC[C@@H](C)NC5=O)n2)cn1`
Solution: not satisfied

Problem: # TODO verify residual activity < 90% strictly for this compound: `NC(=O)c1cc(-c2ccnc(NC3CCCCC3)c2)nc(N2CCNCC2)c1`
Solution: not satisfied

Problem: # TODO verify residual activity < 90% strictly for this compound: CC1=C(CO)C(=O)O[C@@H]([C@@H](C)[C@H]2CC[C@H]3[C@@H]4C[C@H]5O[C@]56[C@@H](O)C=CC(=O)[C@]6(C)C4CC[C@]23C)C1 (stereo partly drawn)
Solution: not satisfied

Problem: # TODO verify residual activity < 90% strictly for this compound: COc1cc(O)c2c(c1)[C@H]1OC1C[C@H](O)[C@H](O)C(=O)/C=C\C[C@H](C)OC2=O (stereo partly drawn)
Solution: not satisfied

Problem: # TODO verify residual activity < 90% strictly for this compound: `CCn1c(-c2nonc2N)nc2cncc(CNC3CCNCC3)c21`
Solution: not satisfied

Problem: # TODO verify residual activity < 90% strictly for this compound: `O=C(N[C@@H](COc1ccc2[nH]c(=O)[nH]c2c1)c1ccccc1)c1cccn(Cc2ccc(F)c(F)c2)c1=O`
Solution: not satisfied

Problem: # TODO verify residual activity < 90% strictly for this compound: `CNc1nc(-c2ccc3c(N)n[nH]c3c2)cc(N2C[C@@H](C(=O)NC3CCCCC3)CC[C@H]2C)n1`
Solution: not satisfied

Problem: # TODO verify residual activity < 90% strictly for this compound: `Cc1ccc(Sc2cnc(Nc3cccc(Br)n3)s2)cc1C(=O)N1CCN(C(=O)CN)CC1`
Solution: satisfied

Problem: # TODO verify residual activity < 90% strictly for this compound: `Cc1cc(NC(=O)c2cccc(NC(=O)/C=C/CN(C)C)c2)ccc1Nc1nccc(-c2cccnc2)n1`
Solution: not satisfied

Problem: # TODO verify residual activity < 90% strictly for this compound: CNC(=O)C1[C@H]2O[C@@](C)([C@@H]1N)n1c3ccccc3c3c4c(c5c6ccccc6n2c5c31)C(=O)NC4 (stereo partly drawn)
Solution: satisfied

Problem: # TODO verify residual activity < 90% strictly for this compound: `COc1cc(O)c2c(c1)/C=C/C[C@H](O)[C@H](O)C(=O)/C=C\C[C@H](C)OC2=O`
Solution: not satisfied

Problem: # TODO verify residual activity < 90% strictly for this compound: `COc1ccc(N(C(=O)Nc2c(C)cccc2C)c2cc(Nc3ccc(N4CCN(C)CC4)cc3)ncn2)c(OC)c1`
Solution: satisfied
